Tested on: NCI-H460 lung
Test: NCI-60 one-dose screen, 48 h
Settings: 10 µM
Compounds without any hit were thinned out: in the full panel of roughly 83,000, 20% have a hit. Calls of active or inactive are those of the source. The calls were made as follows: active = growth percent below 10; inactive = the rest.
Hi there, use one of these labels in your reply, thanks! Yes = active, No = inactive

# input Check the results log: what was the call for Cc1ccc(-c2cc(-c3cccc(Nc4ccnc5cc(Cl)ccc45)c3)nc3nc(N)[nH]c(=O)c23)cc1 ?
# output No

# input Check the results log: what was the call for COc1ccc(-c2[nH]ncc2-c2cc(OC)c(OC)c(OC)c2)cc1 ?
# output Yes

# input Check the results log: what was the call for CCCCC(=O)N(c1ccc(Nc2c3ccccc3nc3cc([N+](=O)[O-])ccc23)cc1)S(C)(=O)=O ?
# output No

# input Check the results log: what was the call for O=[N+]([O-])c1ccc(S(=O)(=O)OCCCCOS(=O)(=O)c2ccc([N+](=O)[O-])cc2)cc1 ?
# output No

# input Check the results log: what was the call for Oc1ccccc1-c1nnc(Cn2c(Cc3cccc4ccccc34)nc3ccccc32)o1 ?
# output No

# input Check the results log: what was the call for C[n+]1c(/C=C/c2c[nH]c3ccccc23)ccc2ccccc21 ?
# output No

# input Check the results log: what was the call for Cc1cc2cc3c(=O)[nH]c(=O)cc-3n(CC(O)C(O)C(O)CO)c2cc1C (stereo not given) ?
# output No

# input Check the results log: what was the call for Cc1cc(Nc2cccc(F)c2)nc(NCc2ccccc2)n1 ?
# output Yes

# input Check the results log: what was the call for COc1ccc2oc(=O)cc(C(c3ccc[nH]3)c3ccc[nH]3)c2c1 ?
# output Yes

# input Check the results log: what was the call for COc1cc([C@@H]2c3cc4c(cc3[C@H](SC(=N)N)[C@H]3COC(=O)[C@H]23)OCO4)cc(OC)c1OC ?
# output Yes

# input Check the results log: what was the call for CCOC(=O)c1c(O)c2cc(-c3ccccc3)nc(OCC)c2c(=O)n1C ?
# output No

# input Check the results log: what was the call for Cc1ccc(-c2cc(C(=O)Nc3ccc(S(=O)(=O)N4CCCCC4)cc3)[nH]n2)c(O)c1 ?
# output No

# input Check the results log: what was the call for O=C1NN(c2ccccc2)C(c2cccnc2)=N/C1=C\c1cccnc1 ?
# output No

# input Check the results log: what was the call for O=C1/C(=C/c2ccc(O)cc2)Oc2ccc(Cl)cc21 ?
# output No

# input Check the results log: what was the call for COCCOC(=O)NC(=O)Nc1ccc(C(=O)c2ccc(Cl)cc2)cc1 ?
# output No

# input Check the results log: what was the call for [O-]c1c[n+](-c2ccc(Cl)cc2)no1 ?
# output No

# input Check the results log: what was the call for Cc1ccccc1C1=N[C@@H](Cc2ccccc2)C(=O)c2c(nc3ccccn23)N1 ?
# output No

# input Check the results log: what was the call for CC1=CSC2=NC(c3ccc(Cl)c(Cl)c3)=CC(c3ccc(Cl)cc3)N12 (stereo not given) ?
# output No

# input Check the results log: what was the call for C=CCn1c(C)nc2cc(Nc3nc(Nc4ccc5nc(C)n(CC=C)c5c4)c4ccccc4n3)ccc21 ?
# output Yes

# input Check the results log: what was the call for COc1ccc(-c2cc(/C=C3\C(=O)Nc4cc(Cl)ccc43)[nH]n2)cc1OC ?
# output No

Data provenance: PubChem BioAssay (NCI)
